Value source: the NIST ThermoML archive (doi:10.1016/j.jct.2017.08.032)

Form field: mass density (one value per entry).
- CONDITION_DETAILS: 303.15 K; 101.33 kPa; Liquid; Vibrating tube method
Your answer is read as kg/m3, so omit the unit and give the number.

Challenge: Reported mass density for CCCC[n+]1ccn(C)c1.O=S(=O)([N-]S(=O)(=O)C(F)(F)F)C(F)(F)F : what is it?
Response given: 1428

More entries:
Challenge: Bench note: what mass density did CCn1cc[n+](C)c1.O=S(=O)([N-]S(=O)(=O)C(F)(F)F)C(F)(F)F show?
Response given: 1510

Challenge: GET /values?readout=mass density&item= CCCCn1cc[n+](C)c1.F[P-](F)(F)(F)(F)F [1-butyl-3-methylimidazolium hexafluorophosphate]
Response given: 1363

Challenge: Please look up its mass density: CCCCn1cc[n+](C)c1.CCOS(=O)(=O)[O-] [1-butyl-3-methyl-1H-imidazolium ethyl sulfate]
Response given: 1180

Challenge: Entry CCCCn1cc[n+](C)c1.O=S(=O)([O-])C(F)(F)F [1-butyl-3-methylimidazolium trifluoromethanesulfonate] : reported mass density = ?
Response given: 1293
